This collection of values is drawn from ChEMBL document CHEMBL1201862.

GI50 values, listed per item
System: DMS-114
MEASUREMENT NOTES: NCI tumour cell line growth inhibition, 48 h
Active and inactive are the calls of the source. No stated cut-off is given here; in the data, active = GI50 up to about 1.1 µM and inactive = higher.

Sample answers from the record:
Exercise: Quick check: GI50 of Cc1c2ccccc2c(=O)n2c(-c3ccccn3)cccc12 ?
Solution: > 100 µM (inactive)

Exercise: Quick check: GI50 of O=C(/C=C/C1C(=O)NC(=O)NC1=O)CC(=O)C(=O)Nc1cc(Cl)c(Cl)cc1Cl ?
Solution: > 100 µM (inactive)

Exercise: Quick check: GI50 of C=CC1=CSNN1 ?
Solution: > 100 µM (inactive)

Consider now this further compound.
Exercise: Quick check: GI50 of CNC(=O)N(C)/N=N/CCCl ?
Solution: > 100 µM (inactive)

----------
GI50 values, listed per item
System: CAKI-1
MEASUREMENT NOTES: NCI tumour cell line growth inhibition, 48 h
Active and inactive are the calls of the source. Rule as the data show it: active = GI50 up to about 1.1 µM and inactive = higher.

Exercise: Quick check: GI50 of COc1ccc(Cc2c(N)[nH]c(=O)n(C)c2=O)cc1 ?
Solution: 96.6 µM (inactive)

Exercise: Quick check: GI50 of CS(=O)(=O)OCCN1CCN(C(=O)c2ccc(Cl)c3c(Nc4ccc(S(=O)(=O)N=C(N)N)cc4)c4ccccc4nc23)CC1 ?
Solution: > 100 µM (inactive)

----------
Test system: SK-OV-3
MEASUREMENT NOTES: NCI tumour cell line growth inhibition, 48 h
Calls of active or inactive are those of the source. No stated cut-off is given here; in the data, active = GI50 up to about 1.1 µM and inactive = higher.
PROPERTY LABEL: GI50

Sample answers from the record:
Exercise: Quick check: GI50 of N#Cc1cc2cc3c4c(c2oc1=O)CCCN4CCC3 ?
Solution: > 100 µM (inactive)

Exercise: Quick check: GI50 of CC(=O)OCC1OC(c2c(OC(C)=O)cc(C)c3c(=O)cc(/C(C(C)=O)=C(\C)O)oc23)C(OC(C)=O)C(OC(C)=O)C1OC(C)=O (stereo not given) ?
Solution: > 100 µM (inactive)

Exercise: Quick check: GI50 of CC[C@@]1(O)C(=O)OCc2c1cc1n(c2=O)Cc2c-1nc1ccccc1c2/C=N\NC(=O)C(N)CCSC (stereo not given in full) ?
Solution: < 0.0127 µM (active)

Exercise: Quick check: GI50 of CSc1ccc2c(cc1=O)[C@@H](NC(=O)c1ccc(Cl)cc1)CCc1cc(O)c(O)c(O)c1-2 ?
Solution: > 100 µM (inactive)

New cases:
Exercise: Quick check: GI50 of O=C(CCC(NC(=O)OCc1ccccc1)C(=O)OCc1ccccc1)Nc1ccc(OCc2ccccc2)cc1 (stereo not given) ?
Solution: > 31.6 µM (inactive)

Exercise: Quick check: GI50 of Oc1ccc(Br)cc1/C=N/c1c(NC2CCCCC2)oc2ccc(Br)cc12 ?
Solution: 87.5 µM (inactive)

Exercise: Quick check: GI50 of CC(N1CCOCC1)C(O)(c1ccccc1)c1ccccn1 (stereo not given) ?
Solution: > 100 µM (inactive)

Exercise: Quick check: GI50 of Cc1c(C)n(COCCO)c2ncnc(N)c12 ?
Solution: > 100 µM (inactive)

Exercise: Quick check: GI50 of Clc1ccc(OCc2nnc(CCCCCCCCc3nnc(COc4ccc(Cl)cc4)o3)o2)cc1 ?
Solution: 57.8 µM (inactive)

Exercise: Quick check: GI50 of O=NN1C(c2ccccc2)CC(=NO)CC1c1ccccc1 (stereo not given) ?
Solution: > 100 µM (inactive)

----------
Tested on: HCC 2998
MEASUREMENT NOTES: NCI tumour cell line growth inhibition, 48 h
Calls of active or inactive are those of the source. Rule as the data show it: active = GI50 up to about 1.1 µM and inactive = higher.
Return exactly one item of true (active), false (inactive)

Exercise: Check the results log: what was the call for CC1=C(C)CC(C#N)(C#N)C(C#N)(C#N)C1 ?
Solution: false

Exercise: Check the results log: what was the call for C[Si](C)(OCCS(=O)(=O)O)OC(=C1S(=O)(=O)OCCOS1(=O)=O)c1cccc2ccccc12 ?
Solution: false

New cases:
Exercise: Check the results log: what was the call for CCc1ccccc1NC(=O)/C=C/c1ccccc1 ?
Solution: false

Exercise: Check the results log: what was the call for O=c1[nH]nc(Cc2ccccc2)n1Nc1ccccc1 ?
Solution: false

Exercise: Check the results log: what was the call for CCOC(=O)c1csc(NC(=O)CCN2CCOCC2)n1 ?
Solution: false

----------
GI50 values, listed per item
System: ACHN
MEASUREMENT NOTES: NCI tumour cell line growth inhibition, 48 h
Activity calls are given as the source filed them. No stated cut-off is given here; in the data, active = GI50 up to about 1.1 µM and inactive = higher.

Sample answers from the record:
Exercise: Quick check: GI50 of Cc1c(F)c(N)c2c(=O)cc(-c3ccc(NC(=O)[C@@H](N)CCCCN)c(F)c3)oc2c1F ?
Solution: 12.9 µM (inactive)

Exercise: Quick check: GI50 of COC(=O)C1=Cc2cn(S(=O)(=O)c3ccc(C)cc3)c3cccc(c23)C(C=C(C)C)N1C(C)=O (stereo not given) ?
Solution: 18.8 µM (inactive)

Exercise: Quick check: GI50 of N#Cc1cc2cc3c4c(c2oc1=O)CCCN4CCC3 ?
Solution: > 100 µM (inactive)

New cases:
Exercise: Quick check: GI50 of O=S1(=O)NN=C(NCc2ccc(Cl)cc2)c2ccccc21 ?
Solution: > 100 µM (inactive)

Exercise: Quick check: GI50 of O=[N+]([O-])c1ccccc1OCCOc1ccccc1[N+](=O)[O-] ?
Solution: > 100 µM (inactive)

Exercise: Quick check: GI50 of Clc1ccc(Cl)c(NNc2cc(Cl)ccc2Cl)c1 ?
Solution: 2.84 µM (inactive)

----------
GI50 values, listed per item
Tested on: M14
MEASUREMENT NOTES: NCI tumour cell line growth inhibition, 48 h
The source made the active and inactive calls. No stated cut-off is given here; in the data, active = GI50 up to about 1.1 µM and inactive = higher.

Exercise: Quick check: GI50 of O=C(NC(=S)Nc1ccc2c(c1)Sc1ccccc1O2)c1ccccc1 ?
Solution: 43.2 µM (inactive)

Exercise: Quick check: GI50 of Nc1ccn(CCCC(c2ccccc2)P(=O)(O)O)c(=O)n1 (stereo not given) ?
Solution: > 100 µM (inactive)

Exercise: Quick check: GI50 of COC(=O)C1OC(O[C@H]2CC[C@]3(C)[C@H]4CC=C5[C@@H]6CC(C)(C)CC[C@]6(C(=O)OC)[C@H](O)C[C@@]5(C)[C@]4(C)CC[C@H]3C2(C)C)C(O)C(O)C1O (stereo not given in full) ?
Solution: 5.22 µM (inactive)

Exercise: Quick check: GI50 of CC(=O)O[C@H]1CCn2c3c(c(C)c21)C(=O)C(N1CC1)=C(C)C3=O ?
Solution: > 10 µM (inactive)

Exercise: Quick check: GI50 of CC(N1CCOCC1)C(O)(c1ccccc1)c1ccccn1 (stereo not given) ?
Solution: > 100 µM (inactive)

Exercise: Quick check: GI50 of CSc1c(C#N)c(O)n(-c2ccc(Cl)cc2)c(=O)c1C(C)=O ?
Solution: 89.9 µM (inactive)

Exercise: Quick check: GI50 of O=C(CN1CCOCC1)Nc1ccc2c(c1)C1Oc3ccccc3CC1CO2 (stereo not given) ?
Solution: > 100 µM (inactive)

Exercise: Quick check: GI50 of CCC1=CC2Cc3nc4cc(Cl)ccc4c(N)c3C(C1)C2 (stereo not given) ?
Solution: 1.54 µM (inactive)

Exercise: Quick check: GI50 of CC1=C(C)CC(C#N)(C#N)C(C#N)(C#N)C1 ?
Solution: 2.86 µM (inactive)

Consider now this further compound.
Exercise: Quick check: GI50 of CCc1ccccc1NNc1cc(=O)[nH]c(=O)[nH]1 ?
Solution: 18.5 µM (inactive)

----------
GI50 values, listed per item
System: HCT-116
MEASUREMENT NOTES: NCI tumour cell line growth inhibition, 48 h
The source made the active and inactive calls. Rule as the data show it: active = GI50 up to about 1.1 µM and inactive = higher.

Exercise: Quick check: GI50 of COC(=O)C1=C(C(=O)OC)C2OC1c1cc3ccccc3cc12 ?
Solution: 1.74 µM (inactive)

Exercise: Quick check: GI50 of CCOC(=O)Nc1ccc(S(=O)(=O)Nn2cnnc2)cc1 ?
Solution: 30.1 µM (inactive)

Exercise: Quick check: GI50 of CC1(CCC(=O)OC2CCCCC2)OCCO1 ?
Solution: > 100 µM (inactive)

----------
Test system: OVCAR-8
MEASUREMENT NOTES: NCI tumour cell line growth inhibition, 48 h
Active and inactive are the calls of the source. Rule as the data show it: active = GI50 up to about 1.1 µM and inactive = higher.
PROPERTY LABEL: GI50

Exercise: Quick check: GI50 of CC(C)CCCC(=O)CCCCCCC(=O)CCN(O)C(=O)C(N)CO (stereo unspecified) ?
Solution: 16.9 µM (inactive)

New cases:
Exercise: Quick check: GI50 of CCOC(=O)CN1CC(C2=C(O)CN(CC(=O)OCC)C2=O)=CC1=O ?
Solution: > 100 µM (inactive)

Exercise: Quick check: GI50 of O=[N+]([O-])c1ccccc1OCCOc1ccccc1[N+](=O)[O-] ?
Solution: 64.6 µM (inactive)

Exercise: Quick check: GI50 of Clc1cccc(Cl)c1C1ON=C(c2ccccc2)N1C12CC3CC(CC(C3)C1)C2 (stereo unspecified) ?
Solution: 32.7 µM (inactive)

Exercise: Quick check: GI50 of C[Si](C)(C)CNC(=O)OCc1ccccc1 ?
Solution: > 100 µM (inactive)

Exercise: Quick check: GI50 of CC(=O)NC1C(OCc2ccccc2)OC(CO)C(O)C1OC(C)C(=O)NC(C(=O)NC(CCC(=O)Nc1ccc2c(c1)CN1C(=O)c3ccccc3C1=N2)C(N)=O)C(C)C (stereo unspecified) ?
Solution: > 100 µM (inactive)
